Ref: PubChem BioAssay AID1963832

system: 885724-159-R-J1-PDC complex spheroid viability; test: Anticancer human tumor 885724-159-R-J1-PDC patient-derived pancreatic adenocarcinoma cell line growth inhibition [POLQ]; conditions: second compound 3.16 µM; first compound 10 µM; active compounds read low;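 also: spheroids exposed to compounds for 7 days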
measured.quantity: viability, T/C (%)
Give bare numbers, in %.

Please give viability, T/C, item by item, for the list that follows.
1. CC1COCCN1c1cc(C2(S(C)(=N)=O)CC2)nc(-c2ccnc3[nH]ccc23)n1 (stereo not given) + COC1C(OC(N)=O)C(O)C(Oc2ccc3c(O)c(NC(=O)c4ccc(O)c(CC=C(C)C)c4)c(=O)oc3c2C)OC1(C)C
2. CC1COCCN1c1cc(C2(S(C)(=N)=O)CC2)nc(-c2ccnc3[nH]ccc23)n1 (stereo not given) + Nc1ccc(C#CCN(C(=O)Cc2ncc(C(F)(F)F)cc2C(F)(F)F)c2ccc(F)cc2)nn1
3. CC1COCCN1c1cc(C2(O)CC3CCC(C2)O3)c2cnn(-c3ccn[nH]3)c2n1 (stereo not given) + Cc1cccc(N(C)C(=O)C2C(O)CCN2c2nc(C)cc(C(F)(F)F)c2C#N)c1
4. CNCc1ccc(-c2[nH]c3cc(F)cc4c3c2CCNC4=O)cc1 + Cc1cccc(N(C)C(=O)C2C(O)CCN2c2nc(C)cc(C(F)(F)F)c2C#N)c1
5. CC1COCCN1c1cc(-c2ccnn2C)c2ccnc(-c3ccn[nH]3)c2n1 (stereo not given) + Cc1cccc(N(C)C(=O)C2C(O)CCN2c2nc(C)cc(C(F)(F)F)c2C#N)c1
6. O=C(c1cc(Cc2n[nH]c(=O)c3ccccc23)ccc1F)N1CCN(C(=O)C2CC2)CC1 + COC1C(OC(N)=O)C(O)C(Oc2ccc3c(O)c(NC(=O)c4ccc(O)c(CC=C(C)C)c4)c(=O)oc3c2C)OC1(C)C
7. COc1ccc([C@@H](O)c2cc(-c3ncnc4cc(N5CCOCC5)ccc34)c(F)cc2Cl)nn1 + COC1C(OC(N)=O)C(O)C(Oc2ccc3c(O)c(NC(=O)c4ccc(O)c(CC=C(C)C)c4)c(=O)oc3c2C)OC1(C)C

Solution:
1: 43.9; 2: 48.4; 3: 29.2; 4: 85.2; 5: 37.8; 6: 79.7; 7: 31.8

Please give viability, T/C, item by item, for the list that follows.
1. CCc1cc2c(N3CCc4c(cc(Cn5ccnc5)cc4-c4cn(C)nc4C(F)(F)F)C3=O)ccnc2c(OC)n1 + Nc1ccc(C#CCN(C(=O)Cc2ncc(C(F)(F)F)cc2C(F)(F)F)c2ccc(F)cc2)nn1
2. COc1cc(C2c3cc4c(cc3C(OC3OC5COC(C)OC5C(O)C3O)C3COC(=O)C23)OCO4)cc(OC)c1O (stereo not given) + Cc1cccc(N(C)C(=O)C2C(O)CCN2c2nc(C)cc(C(F)(F)F)c2C#N)c1
3. CCc1cc2c(N3CCc4c(cc(Cn5ccnc5)cc4-c4cn(C)nc4C(F)(F)F)C3=O)ccnc2c(OC)n1 + COC1C(OC(N)=O)C(O)C(Oc2ccc3c(O)c(NC(=O)c4ccc(O)c(CC=C(C)C)c4)c(=O)oc3c2C)OC1(C)C

Solution:
1. 68.1
2. 45.9
3. 69.5
